Entry source: patent US20190144368A1

Listed compounds paired with reported decrease in biofilm formation, percentage of the control
# Test system: Gram positive bacteria (three Staphylococcus aureus strains)
# assay name: Biofilm formation in polystyrene microtiter plates (crystal violet, OD595), Gram positive bacteria
# Assay type: cell-based
# details: 10 mg/ml, one day at 37 °C
quantity measured: decrease in biofilm formation, percentage of the control (%)

{"smiles code": "O=C1CCC(=O)CC1", "test result": 53}
{"smiles code": "CC1CC(=O)CC(=O)C1", "test result": 98}
{"smiles code": "CCC1CC(=O)CC(=O)C1", "test result": 98}
{"smiles code": "O=C1CCCC(=O)C1", "test result": 98}
